Target: Cannabinoid receptor 1 (Homo sapiens, UniProt P21554)
Sequence (P21554 whole entry): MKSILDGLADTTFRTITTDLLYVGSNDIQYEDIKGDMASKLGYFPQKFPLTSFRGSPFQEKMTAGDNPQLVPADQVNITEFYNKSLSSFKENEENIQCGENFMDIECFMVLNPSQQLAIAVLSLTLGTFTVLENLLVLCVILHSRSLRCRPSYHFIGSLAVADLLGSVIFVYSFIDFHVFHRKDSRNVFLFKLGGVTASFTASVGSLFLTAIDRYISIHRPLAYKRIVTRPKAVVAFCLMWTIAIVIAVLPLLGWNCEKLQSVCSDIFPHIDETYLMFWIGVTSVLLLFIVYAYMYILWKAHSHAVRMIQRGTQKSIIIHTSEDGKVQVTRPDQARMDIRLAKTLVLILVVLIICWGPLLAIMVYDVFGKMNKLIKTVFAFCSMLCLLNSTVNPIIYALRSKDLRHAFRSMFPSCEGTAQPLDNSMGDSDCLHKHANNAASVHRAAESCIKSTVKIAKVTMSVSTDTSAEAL
Assay: Agonist activity at human CB1 receptor stably expressed in RD-HGA16 cells assessed as calcium mobilization at 10000 nM after 15 mins by FLIPR assay relative to CP55,940
Type: functional, cell-based

- STRUCTURE_SMILES: "CN(C)c1cccc(-c2cccc(NC(=O)Nc3ccc(Cl)cc3)c2)n1"
  Activity: "< 15%"
- STRUCTURE_SMILES: "COc1ccc(NC(=O)Nc2cccc(-c3cccc(N4CCCC4)n3)c2)cc1"
  Activity: "< 15%"
- STRUCTURE_SMILES: "O=C(Nc1cccc(-c2cccc(N3CCCC3)n2)c1)Nc1ccc2c(c1)OCO2"
  Activity: "< 15%"
- STRUCTURE_SMILES: "Cc1ccc(NC(=O)Nc2cccc(-c3cccc(N4CCCC4)n3)c2)cc1"
  Activity: "< 15%"
- STRUCTURE_SMILES: "O=C(Nc1ccc(Cl)cc1)Nc1cccc(-c2cccc(N3CCCCC3)n2)c1"
  Activity: "35%"
- STRUCTURE_SMILES: "CN(C)c1ccc(NC(=O)Nc2cccc(-c3cccc(N4CCCC4)n3)c2)cc1"
  Activity: "< 15%"
- STRUCTURE_SMILES: "CCCCN(CCCC)c1cccc(-c2cccc(NC(=O)Nc3ccc(Cl)cc3)c2)n1"
  Activity: "< 15%"
- STRUCTURE_SMILES: "CCCCCNc1cccc(-c2cccc(NC(=O)Nc3ccc(Cl)cc3)c2)n1"
  Activity: "< 15%"
- STRUCTURE_SMILES: "CC(C)c1ccccc1NC(=O)Nc1cccc(-c2cccc(N3CCCC3)n2)c1"
  Activity: "< 15%"
- STRUCTURE_SMILES: "O=C(Nc1cc(Cl)cc(Cl)c1)Nc1cccc(-c2cccc(N3CCCC3)n2)c1"
  Activity: "22.2%"
- STRUCTURE_SMILES: "CNc1cccc(-c2cccc(NC(=O)Nc3ccc(Cl)cc3)c2)n1"
  Activity: "< 15%"
- STRUCTURE_SMILES: "O=C(Nc1ccc([N+](=O)[O-])cc1)Nc1cccc(-c2cccc(N3CCCC3)n2)c1"
  Activity: "27.9%"

====

Molecular target: Cannabinoid receptor 1 (Homo sapiens, UniProt P21554)
Test: Antagonist activity at human CB1 receptor stably expressed in RD-HGA16 cells assessed as inhibition of CP55,940-induced calcium mobilization after 15 mins by FLIPR assay
pIC50: −log10 of the molar value.
Classify by measured pIC50: 1 if it is equal to or exceeds 7, 0 if it is smaller.

- STRUCTURE_SMILES: "CC(C)c1ccccc1NC(=O)Nc1cccc(-c2cccc(N3CCCC3)n2)c1"
  DISCRETE_LABEL: 0
- STRUCTURE_SMILES: "O=C(Nc1cccc(-c2cccc(N3CCCC3)n2)c1)Nc1ccc2c(c1)OCO2"
  DISCRETE_LABEL: 0
- STRUCTURE_SMILES: "O=C(Nc1ccc(Cl)cc1)Nc1cccc(-c2cccc(NC3CCCC3)n2)c1"
  DISCRETE_LABEL: 0
- STRUCTURE_SMILES: "O=C(Nc1cccc(Cl)c1)Nc1cccc(-c2cccc(N3CCCC3)n2)c1"
  DISCRETE_LABEL: 0
- STRUCTURE_SMILES: "CCCNc1cccc(-c2cccc(NC(=O)Nc3ccc(Cl)cc3)c2)n1"
  DISCRETE_LABEL: 0
- STRUCTURE_SMILES: "O=C(Nc1ccc(F)cc1)Nc1cccc(-c2cccc(N3CCCC3)n2)c1"
  DISCRETE_LABEL: 1
- STRUCTURE_SMILES: "Cc1cccc(C)c1NC(=O)Nc1cccc(-c2cccc(N3CCCC3)n2)c1"
  DISCRETE_LABEL: 0
- STRUCTURE_SMILES: "CCNc1cccc(-c2cccc(NC(=O)Nc3ccc(Cl)cc3)c2)n1"
  DISCRETE_LABEL: 0
- STRUCTURE_SMILES: "CN(C)c1cccc(-c2cccc(NC(=O)Nc3ccc(Cl)cc3)c2)n1"
  DISCRETE_LABEL: 1
- STRUCTURE_SMILES: "CCCCN(CCCC)c1cccc(-c2cccc(NC(=O)Nc3ccc(Cl)cc3)c2)n1"
  DISCRETE_LABEL: 0
- STRUCTURE_SMILES: "N#Cc1ccc(NC(=O)Nc2cccc(-c3cccc(N4CCCC4)n3)c2)cc1"
  DISCRETE_LABEL: 1
- STRUCTURE_SMILES: "COc1cc(NC(=O)Nc2cccc(-c3cccc(N4CCCC4)n3)c2)cc(OC)c1OC"
  DISCRETE_LABEL: 0
- STRUCTURE_SMILES: "O=C(Nc1cccc(-c2cccc(N3CCCC3)n2)c1)Nc1ccc2ccccc2c1"
  DISCRETE_LABEL: 0

====

Molecular target: Cannabinoid receptor 1 (Homo sapiens, UniProt P21554)
Assay: Agonist activity at human CB1 receptor stably expressed in RD-HGA16 cells assessed as calcium mobilization at 10000 nM after 15 mins by FLIPR assay relative to CP55,940
Assay type: functional, cell-based
Activity values, listed per item

- STRUCTURE_SMILES: "COc1cc(NC(=O)Nc2cccc(-c3cccc(N4CCCC4)n3)c2)cc(OC)c1OC"
  TARGET_SYSTEM: "Cannabinoid receptor 1 (Homo sapiens, UniProt P21554)"
  Activity: "< 15%"
- STRUCTURE_SMILES: "CCN(C)c1cccc(-c2cccc(NC(=O)Nc3ccc(Cl)cc3)c2)n1"
  TARGET_SYSTEM: "Cannabinoid receptor 1 (Homo sapiens, UniProt P21554)"
  Activity: "< 15%"
- STRUCTURE_SMILES: "Cc1cccc(C)c1NC(=O)Nc1cccc(-c2cccc(N3CCCC3)n2)c1"
  TARGET_SYSTEM: "Cannabinoid receptor 1 (Homo sapiens, UniProt P21554)"
  Activity: "< 15%"
- STRUCTURE_SMILES: "CCCCCCNc1cccc(-c2cccc(NC(=O)Nc3ccc(Cl)cc3)c2)n1"
  TARGET_SYSTEM: "Cannabinoid receptor 1 (Homo sapiens, UniProt P21554)"
  Activity: "< 15%"
- STRUCTURE_SMILES: "O=C(Nc1ccc(Cl)nc1)Nc1cccc(-c2cccc(N3CCCC3)n2)c1"
  TARGET_SYSTEM: "Cannabinoid receptor 1 (Homo sapiens, UniProt P21554)"
  Activity: "< 15%"
- STRUCTURE_SMILES: "CCCN(C)c1cccc(-c2cccc(NC(=O)Nc3ccc(Cl)cc3)c2)n1"
  TARGET_SYSTEM: "Cannabinoid receptor 1 (Homo sapiens, UniProt P21554)"
  Activity: "< 15%"
- STRUCTURE_SMILES: "CC(=O)Nc1cccc(-c2cccc(NC(=O)Nc3ccc(Cl)cc3)c2)n1"
  TARGET_SYSTEM: "Cannabinoid receptor 1 (Homo sapiens, UniProt P21554)"
  Activity: "47%"
- STRUCTURE_SMILES: "O=C(Nc1ccc(Br)cc1)Nc1cccc(-c2cccc(N3CCCC3)n2)c1"
  TARGET_SYSTEM: "Cannabinoid receptor 1 (Homo sapiens, UniProt P21554)"
  Activity: "< 15%"
- STRUCTURE_SMILES: "N#Cc1ccc(NC(=O)Nc2cccc(-c3cccc(N4CCCC4)n3)c2)cc1"
  TARGET_SYSTEM: "Cannabinoid receptor 1 (Homo sapiens, UniProt P21554)"
  Activity: "30%"
- STRUCTURE_SMILES: "CCc1ccccc1NC(=O)Nc1cccc(-c2cccc(N3CCCC3)n2)c1"
  TARGET_SYSTEM: "Cannabinoid receptor 1 (Homo sapiens, UniProt P21554)"
  Activity: "< 15%"
- STRUCTURE_SMILES: "O=C(Nc1ccc(F)cc1)Nc1cccc(-c2cccc(N3CCCC3)n2)c1"
  TARGET_SYSTEM: "Cannabinoid receptor 1 (Homo sapiens, UniProt P21554)"
  Activity: "23.2%"
- STRUCTURE_SMILES: "O=C(Nc1cccc(-c2cccc(N3CCCC3)n2)c1)Nc1cccc2ccccc12"
  TARGET_SYSTEM: "Cannabinoid receptor 1 (Homo sapiens, UniProt P21554)"
  Activity: "< 15%"
- STRUCTURE_SMILES: "CCCN(CCC)c1cccc(-c2cccc(NC(=O)Nc3ccc(Cl)cc3)c2)n1"
  TARGET_SYSTEM: "Cannabinoid receptor 1 (Homo sapiens, UniProt P21554)"
  Activity: "29%"
- STRUCTURE_SMILES: "O=C(Nc1ccccc1)Nc1cccc(-c2cccc(N3CCCC3)n2)c1"
  TARGET_SYSTEM: "Cannabinoid receptor 1 (Homo sapiens, UniProt P21554)"
  Activity: "< 15%"
- STRUCTURE_SMILES: "O=C(Nc1cccc(Cl)c1)Nc1cccc(-c2cccc(N3CCCC3)n2)c1"
  TARGET_SYSTEM: "Cannabinoid receptor 1 (Homo sapiens, UniProt P21554)"
  Activity: "19.6%"
